Entries and their pIC50 values follow.
Test system: human breast cancer cell BT-474
Experiment: Inhibitory action on breast cancer cell BT-474 proliferation in vitro
Format: cell-based
Conditions: 120 h, BT-474 cells, cultured 5 days with compound, SRB staining of cell protein
pIC50: −log10 of the molar value. Structures can show the parent of a compound that is named as a salt.

Worked examples follow.
- molecule: "O=C(NCCOCCO)C1=Cc2c(ncnc2Nc2ccc(Oc3cccc(C(F)(F)F)c3)c(Cl)c2)NCC1"
  assay_target: "human breast cancer cell BT-474"
  pIC50: "> 7.00"
- molecule: "O=C(NCCOCCO)C1=Cc2c(ncnc2Nc2ccc(Oc3cccc(Cl)c3)c(Cl)c2)NCC1 [Example 143, hydrochloride]"
  assay_target: "human breast cancer cell BT-474"
  pIC50: "> 7.00"

Bench note, human breast cancer cell BT-474: COCCOCCNC(=O)C1=Cc2c(ncnc2Nc2ccc(Oc3cccc(C(F)(F)F)c3)c(Cl)c2)NCC1 , pIC50 reads > 7.00
